# assayedSystem: HSF1 (Homo sapiens, UniProt Q00613)
# Construct: functionally linked to an hsp70b promoter and therefore controlled by endogenous HSF1; endogenous in cells; host or cells: HeLa cells / HeLa-derived cell line Z74
# Sequence (Q00613 1-529): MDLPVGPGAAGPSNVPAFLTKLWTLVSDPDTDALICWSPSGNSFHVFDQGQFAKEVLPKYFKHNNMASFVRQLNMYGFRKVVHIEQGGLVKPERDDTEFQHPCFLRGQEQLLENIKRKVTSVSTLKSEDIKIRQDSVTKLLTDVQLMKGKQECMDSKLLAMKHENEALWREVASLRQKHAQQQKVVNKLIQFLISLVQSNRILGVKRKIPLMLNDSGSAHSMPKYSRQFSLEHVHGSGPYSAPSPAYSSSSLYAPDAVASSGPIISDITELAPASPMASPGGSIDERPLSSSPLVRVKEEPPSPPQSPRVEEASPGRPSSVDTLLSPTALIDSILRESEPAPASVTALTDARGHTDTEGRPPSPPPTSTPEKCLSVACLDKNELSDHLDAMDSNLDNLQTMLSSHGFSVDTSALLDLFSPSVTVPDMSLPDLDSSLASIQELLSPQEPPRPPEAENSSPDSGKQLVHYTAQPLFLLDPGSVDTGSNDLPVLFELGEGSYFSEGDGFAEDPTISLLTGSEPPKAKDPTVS
# runDescription: Z74 cell-based reporter assay: heat-induced RLuc expression controlled by endogenous HSF1
# setupConditions: Z74 cells; 25 μM IHSF; 2 h exposure, 43° C. 30 min, 6 h at 37° C.; read-out: Inhibition of HSF1 activity at 25 μM IHSF [RLuc] (%)
Record form. Attribute: inhibition at 25 µM. Fill in for each entry.
Answer with a number only, understood to be in %.

Request: Fill blank: measured inhibition at 25 µM of the compound CCOC(=O)/C=C/C(=O)Nc1cc(-c2ccccc2)cs1 [IHSF 043] is ____.
Response: 5

Request: Fill blank: measured inhibition at 25 µM of the compound CCOC(=O)/C=C/C(=O)N(CCc1cn(C)cn1)c1nccs1 [IHSF 108] is ____.
Response: 89

Request: Fill blank: measured inhibition at 25 µM of the compound CCOC(=O)/C=C/C(=O)Nc1ncc(-c2cccnc2)s1 [IHSF 058] is ____.
Response: 97

Request: Fill blank: measured inhibition at 25 µM of the compound CCOC(=O)/C=C/C(=O)Nc1ncc(C)s1 [IHSF 013] is ____.
Response: 50

Request: Fill blank: measured inhibition at 25 µM of the compound CCOC(=O)/C=C/C(=O)Nc1nc(-c2ccccn2)cs1 [IHSF 054] is ____.
Response: 69

Request: Fill blank: measured inhibition at 25 µM of the compound CCOC(=O)/C=C/C(=O)Nc1ccnc(-c2cccnc2)c1 [IHSF 086] is ____.
Response: 78

Request: Fill blank: measured inhibition at 25 µM of the compound CCOC(=O)/C=C/C(=O)Nc1nc(-c2ccncc2)cs1 [IHSF 056] is ____.
Response: 61

Request: Fill blank: measured inhibition at 25 µM of the compound CCOC(=O)/C=C/C(=O)Nc1nc(C2CC2)cs1 [IHSF 053] is ____.
Response: 29

Request: Fill blank: measured inhibition at 25 µM of the compound CCOC(=O)/C=C/C(=O)N(CCN1CCOCC1)c1nccs1 [IHSF 101] is ____.
Response: 48

Request: Fill blank: measured inhibition at 25 µM of the compound CCOC(=O)/C=C/C(=O)N(C)c1nccs1 [IHSF 070] is ____.
Response: 90

Request: Fill blank: measured inhibition at 25 µM of the compound CCOC(=O)/C=C/C(=O)Nc1nc(C)cs1 [IHSF 011] is ____.
Response: 83

Request: Fill blank: measured inhibition at 25 µM of the compound COC(=O)/C=C/C(=O)Nc1nccs1 [IHSF 027] is ____.
Response: 42
